Data provenance is paper PMC3210832.

test_name: Bidirectional transport across Caco-2 cell monolayers
condition_set: human, Caco-2, pH 7.4

{"columns": ["molecule", "Papp A→B [×10⁻⁶ cm/s]"],
 "data": [
  ["CNC(=O)[C@@H](NC(=O)[C@](O)(Cc1ccccc1)CN(Cc1ccc(-c2ccccn2)cc1)NC(=O)[C@@H](NC(=O)OC)C(C)(C)C)C(C)(C)C", 3.4]
]}

----------
test_name: Transport
condition_set: rat, pH 7.4

{"columns": ["molecule", "Papp (×10⁻⁶ cm/s)"],
 "data": [
  ["CNC(=O)[C@@H](NC(=O)[C@](O)(Cc1ccccc1)CN(Cc1ccc(-c2ccccn2)cc1)NC(=O)[C@@H](NC(=O)OC)C(C)(C)C)C(C)(C)C", 3.8]
]}
